Cited source for all entries: patent US6559177B2

Reported pIC50 values are given for each entry in this list.
- Target: human ERβ (Homo sapiens)
- Construct: made in house; host or cells: E. coli (crude lysate)
- Sequence (Q92731 264-498 limits assumed): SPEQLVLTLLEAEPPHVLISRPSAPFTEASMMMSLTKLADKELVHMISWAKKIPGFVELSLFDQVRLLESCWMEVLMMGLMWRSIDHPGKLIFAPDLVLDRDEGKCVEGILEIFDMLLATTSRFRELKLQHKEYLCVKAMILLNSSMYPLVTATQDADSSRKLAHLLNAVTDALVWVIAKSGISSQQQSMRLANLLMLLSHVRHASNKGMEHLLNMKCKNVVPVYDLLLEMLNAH
- Measurement Notes: Competition with [3H]-17β-estradiol for binding to ERβ ligand binding domain
- Cond: E. coli lysate expressing ER ligand binding domains (D,E,&F); 2 nM [3H]-17β-estradiol; 5-15 hours at room temperature; read-out: ERβ IC50
Scale: pIC50 equals -log10([C]), with [C] in mol/L.

Previously resolved entries follow.
{"Smiles Representation": "O=c1c2oc3ccc(O)cc3c2oc2cc(O)cc(O)c12", "pIC50": 7.15}
{"Smiles Representation": "O=c1c2sc3ccccc3c2oc2cc(O)cc(O)c12", "pIC50": 6.12}

Find the recorded pIC50 belonging to O=c1c2ccc(O)cc2oc2c1oc1c3ccccc3ccc21 and report it.
5.57

Find the recorded pIC50 belonging to O=c1c2ccc(O)cc2oc2c1oc1cc(O)ccc12 and report it.
7.49

Find the recorded pIC50 belonging to O=c1c2cc(O)ccc2oc2c1oc1ccc(O)cc12 and report it.
7.36

Find the recorded pIC50 belonging to O=c1c2cc(O)ccc2oc2c1oc1cc(O)ccc12 and report it.
6.72

Find the recorded pIC50 belonging to O=c1c2ccc(O)cc2oc2c1oc1ccc(O)cc12 and report it.
6.07

* * *

Reported IC50 values are given for each entry in this list.
- Target: human ERβ (Homo sapiens)
- Construct: made in house; host or cells: E. coli (crude lysate)
- Measurement Notes: Competition with [3H]-17β-estradiol for binding to ERβ ligand binding domain
- Cond: read-out: ERβ IC50; E. coli lysate expressing ER ligand binding domains (D,E,&F); 2 nM [3H]-17β-estradiol; 5-15 hours at room temperature
- Procedure: This test procedure provides the methodology for one to determine whether a particular compound binds to the estrogen receptor (and is therefore “estrogenic”) and whether there is selectivity for ERα or ERβ. […] The procedure used is briefly described below. […] After between 5 and 15 hours at room temperature, the plates were washed with DPBS/1 mM EDTA and bound radioactivity determined by liquid scintillation counting.
Please respond with the number in µM and leave the unit unwritten.

{"Smiles Representation": "O=c1c2oc3ccccc3c2oc2cc(O)cc(O)c12", "Scale Unit": "µM", "IC50": 3.19}

Find the recorded IC50 belonging to O=c1c2ccc(O)cc2oc2c1sc1ccccc12 and report it.
2.93

* * *

- Target: human ERα (Homo sapiens)
- Sequence (P03372 311-547 limits assumed): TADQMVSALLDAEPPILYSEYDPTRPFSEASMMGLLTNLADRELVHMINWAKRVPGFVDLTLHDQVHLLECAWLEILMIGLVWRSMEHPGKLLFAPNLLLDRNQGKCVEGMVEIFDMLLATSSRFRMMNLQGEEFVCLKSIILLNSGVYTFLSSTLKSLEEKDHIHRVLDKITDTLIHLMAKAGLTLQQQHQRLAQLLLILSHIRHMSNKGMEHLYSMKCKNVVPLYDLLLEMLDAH
- Measurement Notes: Competition with [3H]-17β-estradiol for binding to ERα ligand binding domain
- Cond: E. coli lysate expressing ER ligand binding domains (D,E,&F); 2 nM [3H]-17β-estradiol; 5-15 hours at room temperature
Property Measured: log10 of IC50 (log10 of the value in µM)
Transform log10 | Measure IC50 | Unit µM

Previously resolved entries follow.
{"Smiles Representation": "O=c1c2sc3ccccc3c2oc2cc(O)cc(O)c12", "Target": "human ERα (Homo sapiens)", "log10 of IC50": 0.56}
{"Smiles Representation": "O=c1c2oc3ccc(O)cc3c2oc2cc(O)cc(O)c12", "Target": "human ERα (Homo sapiens)", "log10 of IC50": 0.47}
{"Smiles Representation": "O=c1c2ccc(O)cc2oc2c1oc1cc(O)ccc12", "Target": "human ERα (Homo sapiens)", "log10 of IC50": -0.26}
{"Smiles Representation": "O=c1c2cc(O)ccc2oc2c1oc1cc(O)ccc12", "Target": "human ERα (Homo sapiens)", "log10 of IC50": 0.18}

Could you now look at the following compound, please?
Find the recorded log10 of IC50 belonging to O=c1c2cc(O)ccc2oc2c1oc1ccc(O)cc12 and report it.
-0.73
